- system: CYP2D6 (Homo sapiens)
- Sequence (P10635 whole entry): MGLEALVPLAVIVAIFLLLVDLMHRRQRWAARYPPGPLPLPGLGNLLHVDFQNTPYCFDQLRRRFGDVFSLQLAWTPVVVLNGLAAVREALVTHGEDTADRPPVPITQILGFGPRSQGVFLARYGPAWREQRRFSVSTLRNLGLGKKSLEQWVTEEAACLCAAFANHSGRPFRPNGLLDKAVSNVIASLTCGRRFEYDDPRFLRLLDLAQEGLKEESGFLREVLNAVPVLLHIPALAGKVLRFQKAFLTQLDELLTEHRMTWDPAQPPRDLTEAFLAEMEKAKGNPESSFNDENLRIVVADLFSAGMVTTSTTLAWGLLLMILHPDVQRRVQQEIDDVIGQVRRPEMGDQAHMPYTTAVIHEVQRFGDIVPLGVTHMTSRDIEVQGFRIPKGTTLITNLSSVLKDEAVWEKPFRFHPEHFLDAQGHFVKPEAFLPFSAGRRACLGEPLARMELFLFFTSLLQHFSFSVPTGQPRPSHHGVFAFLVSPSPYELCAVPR
- test method notes: Inhibition of CYP2D6 (unknown origin)
quantity name: IC50

query: State the measured IC50 (CYP2D6 (Homo sapiens)) of COc1ccc2c(c1)[C@@H]1C[C@]1(C(=O)N1[C@@H]3CC[C@H]1CN(C)C3)Cn1c-2c(C2CCCCC2)c2ccc(C(=O)NS(=O)(=O)N(C)C)cc21 [BECLABUVIR]
result: > 40 µM

---

- system: Sodium channel protein type 5 subunit alpha (Homo sapiens)
- Sequence (Q14524 whole entry): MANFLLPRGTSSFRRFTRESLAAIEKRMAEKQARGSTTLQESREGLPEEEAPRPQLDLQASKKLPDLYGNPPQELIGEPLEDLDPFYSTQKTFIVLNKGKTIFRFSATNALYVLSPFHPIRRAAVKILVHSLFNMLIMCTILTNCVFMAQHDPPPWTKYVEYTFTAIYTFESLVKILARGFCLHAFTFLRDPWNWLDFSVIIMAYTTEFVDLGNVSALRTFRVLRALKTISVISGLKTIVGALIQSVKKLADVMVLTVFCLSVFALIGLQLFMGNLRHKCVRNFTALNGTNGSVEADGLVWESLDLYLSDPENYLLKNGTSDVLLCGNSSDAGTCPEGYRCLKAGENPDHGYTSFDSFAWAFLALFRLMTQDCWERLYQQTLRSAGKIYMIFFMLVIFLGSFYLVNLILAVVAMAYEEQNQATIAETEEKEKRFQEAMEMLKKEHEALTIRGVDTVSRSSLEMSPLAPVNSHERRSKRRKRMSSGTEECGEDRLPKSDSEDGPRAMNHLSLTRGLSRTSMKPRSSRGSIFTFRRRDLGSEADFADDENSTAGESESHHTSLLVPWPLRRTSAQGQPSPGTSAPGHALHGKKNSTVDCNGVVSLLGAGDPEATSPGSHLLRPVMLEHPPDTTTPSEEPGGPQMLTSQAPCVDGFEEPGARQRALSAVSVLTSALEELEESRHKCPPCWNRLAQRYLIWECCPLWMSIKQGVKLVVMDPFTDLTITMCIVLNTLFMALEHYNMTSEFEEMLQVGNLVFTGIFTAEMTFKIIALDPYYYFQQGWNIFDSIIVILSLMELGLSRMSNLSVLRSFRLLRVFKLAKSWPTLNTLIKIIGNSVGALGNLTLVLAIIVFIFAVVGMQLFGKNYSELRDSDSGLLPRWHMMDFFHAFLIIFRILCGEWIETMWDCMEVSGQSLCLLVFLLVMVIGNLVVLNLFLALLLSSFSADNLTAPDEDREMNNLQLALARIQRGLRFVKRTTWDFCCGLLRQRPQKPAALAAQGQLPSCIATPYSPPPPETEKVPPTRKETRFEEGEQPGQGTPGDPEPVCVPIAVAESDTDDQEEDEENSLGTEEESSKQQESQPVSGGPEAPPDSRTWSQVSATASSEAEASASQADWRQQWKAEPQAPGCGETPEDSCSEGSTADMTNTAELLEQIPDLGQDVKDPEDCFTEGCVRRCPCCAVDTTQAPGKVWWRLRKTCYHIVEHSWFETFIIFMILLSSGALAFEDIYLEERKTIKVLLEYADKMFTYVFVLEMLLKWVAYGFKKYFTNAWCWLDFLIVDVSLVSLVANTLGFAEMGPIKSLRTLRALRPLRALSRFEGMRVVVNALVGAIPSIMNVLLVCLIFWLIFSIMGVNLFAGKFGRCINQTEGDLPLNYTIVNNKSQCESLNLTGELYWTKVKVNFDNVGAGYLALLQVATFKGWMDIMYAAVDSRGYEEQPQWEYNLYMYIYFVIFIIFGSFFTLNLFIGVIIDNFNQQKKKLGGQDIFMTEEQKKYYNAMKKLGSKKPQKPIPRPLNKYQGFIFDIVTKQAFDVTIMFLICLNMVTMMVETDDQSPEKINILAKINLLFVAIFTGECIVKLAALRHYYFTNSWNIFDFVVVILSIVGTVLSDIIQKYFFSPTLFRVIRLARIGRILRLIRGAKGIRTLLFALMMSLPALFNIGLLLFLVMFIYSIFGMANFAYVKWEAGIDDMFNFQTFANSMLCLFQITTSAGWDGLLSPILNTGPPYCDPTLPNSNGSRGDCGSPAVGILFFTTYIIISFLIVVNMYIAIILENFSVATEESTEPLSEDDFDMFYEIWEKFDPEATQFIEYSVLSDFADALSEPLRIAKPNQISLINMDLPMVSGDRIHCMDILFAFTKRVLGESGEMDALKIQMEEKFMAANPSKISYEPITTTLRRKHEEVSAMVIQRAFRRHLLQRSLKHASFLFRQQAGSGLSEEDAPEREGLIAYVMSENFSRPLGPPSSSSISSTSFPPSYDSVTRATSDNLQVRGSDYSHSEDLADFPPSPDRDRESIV
- test method notes: Inhibition of human NaV1.5 expressed in HEK293 cells by fluorescence-based thallium flux assay
quantity name: EC50 (µM)
Give your result in µM as a bare value.

query: Consider the compound CCN1CC2CC(C1)N2C(=O)[C@]12C[C@H]1c1cc(OC)ccc1-c1c(C3CCCCC3)c3ccc(C(=O)NS(=O)(=O)N(C)C)cc3n1C2 . State its measured EC50.
result: 29

query: Consider the compound COc1ccc2c(c1)[C@@H]1C[C@]1(C(=O)N1C3CC1CN(C)C3)Cn1c-2c(C2CCCCC2)c2ccc(C(=O)NS(=O)(=O)N(C)C)cc21 . State its measured EC50.
result: 30

---

- test method notes: Solubility of the compound in amorphous form in phosphate buffer at pH 6.5
- Format: physicochemical
quantity name: log10 of solubility (log10 of the value in µg/mL)
Log10 applied to solubility; unit prior to transform: µg/mL.

query: Consider the molecule COc1ccc2c(c1)C1CC1(C(=O)N1C[C@@H](C)N(C(C)=O)[C@@H](C)C1)Cn1c-2c(C2CCCCC2)c2ccc(C(=O)NS(=O)(=O)N(C)C)cc21 (mixture of isomers) . State its measured log10 of solubility.
result: 1.23

query: Consider the molecule COc1ccc2c(c1)C1CC1(C(=O)N1CCN(C(=O)N(C)C)CC1)Cn1c-2c(C2CCCCC2)c2ccc(C(=O)NS(=O)(=O)N(C)C)cc21 (racemic) . State its measured log10 of solubility.
result: 1.26

query: Consider the molecule COc1ccc2c(c1)C1CC1(C(=O)N1CC(O)C1)Cn1c-2c(C2CCCCC2)c2ccc(C(=O)NS(=O)(=O)N(C)C)cc21 (racemic) . State its measured log10 of solubility.
result: 1.76

query: Consider the molecule COc1ccc2c(c1)[C@@H]1C[C@]1(C(=O)N1[C@@H]3CC[C@H]1CN(C)C3)Cn1c-2c(C2CCCCC2)c2ccc(C(=O)NS(=O)(=O)N(C)C)cc21 . State its measured log10 of solubility.
result: 1.46

query: Consider the molecule COc1ccc2c(c1)C1CC1(C(=O)N1C[C@@H](C)N(C)[C@@H](C)C1)Cn1c-2c(C2CCCCC2)c2ccc(C(=O)NS(=O)(=O)N(C)C)cc21 (mixture of isomers) . State its measured log10 of solubility.
result: 1.53

query: Consider the molecule COc1ccc2c(c1)[C@@H]1C[C@]1(C(=O)N1C3CC1CN(C)C3)Cn1c-2c(C2CCCCC2)c2ccc(C(=O)NS(=O)(=O)N(C)C)cc21 . State its measured log10 of solubility.
result: 2.88

---

- System: Liver microsome
- assay context: human, microsomes
quantity name: Stability (%)
Give your result in % as a bare value.

query: State the measured Stability (Liver microsome) of COc1ccc2c(c1)C1CC1(C(=O)N1CC(O)(C(F)(F)F)C1)Cn1c-2c(C2CCCCC2)c2ccc(C(=O)NS(=O)(=O)N(C)C)cc21 (racemic)
result: 100

query: State the measured Stability (Liver microsome) of COc1ccc2c(c1)C1CC1(C(=O)N1CCN(C(C)=O)CC1)Cn1c-2c(C2CCCCC2)c2ccc(C(=O)NS(=O)(=O)N(C)C)cc21 (racemic)
result: 93

query: State the measured Stability (Liver microsome) of COc1ccc2c(c1)C1CC1(C(=O)N1CC(O)(C3CC3)C1)Cn1c-2c(C2CCCCC2)c2ccc(C(=O)NS(=O)(=O)N(C)C)cc21 (racemic)
result: 100

query: State the measured Stability (Liver microsome) of COc1ccc2c(c1)C1CC1(C(=O)N1CC3CCC(C1)N3C)Cn1c-2c(C2CCCCC2)c2ccc(C(=O)NS(=O)(=O)N(C)C)cc21 (racemic)
result: 100

query: State the measured Stability (Liver microsome) of COc1ccc2c(c1)C1CC1(C(=O)N1C[C@@H](C)N(C(C)=O)[C@@H](C)C1)Cn1c-2c(C2CCCCC2)c2ccc(C(=O)NS(=O)(=O)N(C)C)cc21 (mixture of isomers)
result: 100

query: State the measured Stability (Liver microsome) of COc1ccc2c(c1)C1CC1(C(=O)N1C3CCC1CN(C)C3)Cn1c-2c(C2CCCCC2)c2ccc(C(=O)NS(=O)(=O)N(C)C)cc21 (racemic)
result: 90

query: State the measured Stability (Liver microsome) of CCN1CC2CCC(C1)N2C(=O)C12CC1c1cc(OC)ccc1-c1c(C3CCCCC3)c3ccc(C(=O)NS(=O)(=O)N(C)C)cc3n1C2 (racemic)
result: 98

query: State the measured Stability (Liver microsome) of COc1ccc2c(c1)C1CC1(C(=O)N1CC(O)(c3ccc(F)cc3)C1)Cn1c-2c(C2CCCCC2)c2ccc(C(=O)NS(=O)(=O)N(C)C)cc21 (racemic)
result: 87

query: State the measured Stability (Liver microsome) of COc1ccc2c(c1)[C@@H]1C[C@]1(C(=O)N1C3CC1CN(C)C3)Cn1c-2c(C2CCCCC2)c2ccc(C(=O)NS(=O)(=O)N(C)C)cc21
result: 98

query: State the measured Stability (Liver microsome) of COc1ccc2c(c1)C1CC1(C(=O)N1C3CC1CN(Cc1ccccc1)C3)Cn1c-2c(C2CCCCC2)c2ccc(C(=O)NS(=O)(=O)N(C)C)cc21 (racemic)
result: 80

query: State the measured Stability (Liver microsome) of COc1ccc2c(c1)C1CC1(C(=O)N1CC(C)(O)C1)Cn1c-2c(C2CCCCC2)c2ccc(C(=O)NS(=O)(=O)N(C)C)cc21 (racemic)
result: 81

query: State the measured Stability (Liver microsome) of COc1ccc2c(c1)C1CC1(C(=O)N1C[C@@H](C)N(C)[C@@H](C)C1)Cn1c-2c(C2CCCCC2)c2ccc(C(=O)NS(=O)(=O)N(C)C)cc21 (mixture of isomers)
result: 88

---

- test method notes: Drug uptake in rat liver at 10 mg/kg, po after 4 hrs
- Format: ADME, organism-based
- Set-up: dose 10 mg/kg, route oral
- assay context: read-out: Drug uptake
quantity name: concentration at 4 h (µM)
Give your result in µM as a bare value.

query: Consider the compound COc1ccc2c(c1)C1CC1(C(=O)N1CC(O)C1)Cn1c-2c(C2CCCCC2)c2ccc(C(=O)NS(=O)(=O)N(C)C)cc21 (racemic) . State its measured concentration at 4 h.
result: 8.8

query: Consider the compound COc1ccc2c(c1)C1CC1(C(=O)N1CC(C)(O)C1)Cn1c-2c(C2CCCCC2)c2ccc(C(=O)NS(=O)(=O)N(C)C)cc21 (racemic) . State its measured concentration at 4 h.
result: 3.7

query: Consider the compound COc1ccc2c(c1)C1CC1(C(=O)N1C[C@@H](C)N(C)[C@@H](C)C1)Cn1c-2c(C2CCCCC2)c2ccc(C(=O)NS(=O)(=O)N(C)C)cc21 (mixture of isomers) . State its measured concentration at 4 h.
result: 9.7

query: Consider the compound COc1ccc2c(c1)C1CC1(C(=O)N1C[C@@H](C)N(C(C)=O)[C@@H](C)C1)Cn1c-2c(C2CCCCC2)c2ccc(C(=O)NS(=O)(=O)N(C)C)cc21 (mixture of isomers) . State its measured concentration at 4 h.
result: 0.345
